System: NCI-H460
measurement description: NCI tumour cell line growth inhibition, 48 h
Calls of active or inactive are those of the source. No stated cut-off is given here; in the data, active = GI50 up to about 1.1 µM and inactive = higher.
Write down the outcome that applies. Available outcomes: true = active, false = inactive

Some entries whose results are on file:
- compound: "CC(C)CCNC(=O)c1ccc(CNC(=O)/C=C/c2ccc(OCc3ccccc3)cc2)cc1"
  class label: "false"
- compound: "COc1cc(Nc2cnc3cc(F)c(F)cc3n2)cc(OC)c1"
  class label: "false"
- compound: "COC[C@H](C)/N=C/N1CCc2ccccc2C1(Cc1ccccc1)Cc1ccccc1"
  class label: "false"

Problem: What was the test verdict on CC1=C2O[C@]3(O)C=C2C(=C(O)C1=O)[C@@H]1O[C@H](CC[C@H](C)/C=C(\C)C[C@@H](C)C[C@@H]3C)[C@H](C)[C@H](O)[C@H]1C [KENDOMYCIN] ?
Solution: true

Problem: Would you mind telling me which call this test gave CN(O)C(=O)SCC(NC(=O)CCC(N)C(=O)O)C(=O)NCC(=O)O (stereo not given) ?
Solution: false
